Measured values drawn from patent US20180230200A1 for this set.

# targetUnderTest: T1, gH expressed from MVA in BHK-21 cells (human cytomegalovirus, UniProt P12824 24-743)
# T1 construct: whole, on cells
# T1 sequence (P12824 24-743 limits assumed): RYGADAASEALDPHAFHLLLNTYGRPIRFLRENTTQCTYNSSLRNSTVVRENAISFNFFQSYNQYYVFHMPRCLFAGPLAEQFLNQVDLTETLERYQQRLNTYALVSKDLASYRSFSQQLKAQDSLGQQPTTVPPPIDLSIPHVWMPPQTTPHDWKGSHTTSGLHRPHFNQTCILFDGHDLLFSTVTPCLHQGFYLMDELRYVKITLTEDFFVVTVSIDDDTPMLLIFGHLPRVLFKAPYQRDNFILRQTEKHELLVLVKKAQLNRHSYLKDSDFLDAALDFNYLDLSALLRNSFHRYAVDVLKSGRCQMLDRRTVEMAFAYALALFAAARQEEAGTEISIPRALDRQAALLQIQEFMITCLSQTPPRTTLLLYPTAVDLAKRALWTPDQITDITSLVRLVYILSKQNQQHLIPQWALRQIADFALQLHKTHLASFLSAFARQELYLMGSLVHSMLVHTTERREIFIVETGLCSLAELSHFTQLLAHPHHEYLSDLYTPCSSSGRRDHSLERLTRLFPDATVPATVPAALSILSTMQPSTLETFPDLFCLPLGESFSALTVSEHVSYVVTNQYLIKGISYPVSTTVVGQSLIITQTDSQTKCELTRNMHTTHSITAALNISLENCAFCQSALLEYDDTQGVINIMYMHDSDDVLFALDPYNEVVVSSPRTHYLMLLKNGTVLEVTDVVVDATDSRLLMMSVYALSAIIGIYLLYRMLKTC
# assayProtocol: intracellular FC, MVA-infected BHK-21

binder	binding result
54E11 (antibody, V domains shown, also called NAb 54E11) VH: QIQLVQSGPELKKPGETVKISCKASGYTFTSYGMNWVKQAPGKGLKWMGWINTYTGEPTYADDFKGRFAFSLETSASTAYLQINNLKNEDTATYFCAREHYYGINPLLGCWGQGTTLTVSS VL: DIQMTQTTSSLSASLGDRVTISCSASQGISNYLNWYQQKPDGTVKLLIYDTSSLHSGVPSRFSGSGSGTDYSLTISNLEPEDIATYYCQQYSKLPYTFGGGTKLEIK	no binding
12E2 (antibody, V domains shown, also called NAb 12E2) VH: EVKLVESGGGLVQPGGSLKLSCATSGFTFSDYYMFWVRQTPEKKLEWVAYISNGGGSTYYPDTVKGRFTISRDNDKNTLYLQMSRLKSDDTALYYCVRPKRDFQYLYAMDYWGQGTSVTVSS VL: DIVLTQSPASLAVSLGQRATISCRASKSVSTSGYSYMHWYQQKPGQSPKLLIYLASNLESGVPARFSGSGSGTDFTLNIHPVEDEDAATYYCQHSRELPWTFGGGTKLEIK	no binding
1B2 (antibody, V domains shown, also called NAb 1B2) VH: EVQLVESGGVLVKPGGSLKLSCAASGFTFSDYYMYWVRQTPEKRLEWVATISDDGNYTNYPDSVKGRFTISRDNAKNNLYLQMSSLKSEDTAMYYCARGWLLPVFAYWGQGTLVTVSA VL: DIVLTQSPATLSVTPGDSVSLSCRASQSIGNNLHWYQQKSHESPRLLIKYTSQSISGIPSRFSGSGSGTDFTLNINSVETEDFGVYFCQQSNRWPWTFGGGTKLEIK	no binding
